Target: Cytochrome P450 1A2 (Homo sapiens) (UniProt P05177)
Sequence (P05177 whole entry, looked up): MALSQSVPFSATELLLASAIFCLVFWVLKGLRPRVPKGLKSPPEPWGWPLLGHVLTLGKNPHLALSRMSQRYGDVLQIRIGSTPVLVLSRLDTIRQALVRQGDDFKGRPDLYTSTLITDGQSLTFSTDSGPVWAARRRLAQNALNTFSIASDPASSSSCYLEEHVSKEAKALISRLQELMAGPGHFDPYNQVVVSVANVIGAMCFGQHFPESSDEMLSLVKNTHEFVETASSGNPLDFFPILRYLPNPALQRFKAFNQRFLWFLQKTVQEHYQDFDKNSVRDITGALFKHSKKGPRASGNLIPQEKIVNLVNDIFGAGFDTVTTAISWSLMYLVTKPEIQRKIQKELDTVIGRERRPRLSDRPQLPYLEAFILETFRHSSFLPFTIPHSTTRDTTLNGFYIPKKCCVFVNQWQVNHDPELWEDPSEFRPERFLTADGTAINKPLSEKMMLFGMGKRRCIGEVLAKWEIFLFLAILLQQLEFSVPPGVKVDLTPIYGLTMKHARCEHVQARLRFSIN
Assay: Cytochrome panel assay with activity outcomes
Details: recombinant CYP, pro-luciferin dealkylation, luminescence, p450-cyp1a2; series mostly up to 57.1 µM
The campaign covered roughly 16,000 compounds. About 5,700 (36%) were called active. Roughly 24% stayed inconclusive and do not appear here. The list shows a part of the results.
measured parameter: AC50

Would you please look over these solved cases?
* COc1ncnc(NS(=O)(=O)c2ccc(N)cc2)c1OC | inactive
* COc1ccc(OC)c(C2C(C(=O)Nc3nc4ccccc4s3)=C(C)NC3=C2C(=O)CCC3)c1 (centres undefined) | 1410 nM (active)
* Nc1nonc1-c1noc(CCCN2C(=O)c3ccccc3C2=O)n1 | 14100 nM (active)
* C=CCOc1ccc(CNC(C)(C)CO)cc1OCC | inactive
* O=C(Cn1cccc1)NC1CCCCCC1 | inactive

Supply AC50 value. Item: CCn1c(SCC(=O)OC)nnc1C1CCCCC1
inactive
